Task for the reader: assign each of the following molecules its reported pEC50 Strain C.
- Tested on: mutant HIV strain C
- test summary: microbe, parasite or virus in culture
- Format: cell-based
- measurement setup: mutant HIV strain C, MT4 cells
- Method: HIV- or mock-infected MT4 cells were incubated for five days in the presence of various concentrations of the inhibitor. […] Cell viability is measured by measuring the concentration of MTT, a yellow, water soluble tetrazolium dye that is converted to a purple, water insoluble formazan in the mitochondria of living cells only. Upon solubilization of the resulting formazan crystals with isopropanol, the absorbance of the solution is monitored at 540 nm. […]
I'd appreciate a reply containing only the number, no unit.

**Query** Return pEC50 Strain C for the following molecule: CNc1nc2ccc(S(=O)(=O)N(CC(C)C)C[C@@H](O)[C@H](Cc3ccccc3)NC(=O)O[C@H]3CO[C@H]4OCC[C@H]43)cc2s1
**Result** 9.71

**Query** Note down pEC50 Strain C recorded for CNc1nc2ccc(S(=O)(=O)N(CC(C)C)C[C@@H](O)[C@H](Cc3ccccc3)NC(=O)OCc3cncs3)cc2s1.O=C(O)C(F)(F)F
**Result** 7.88

**Query** Fill in reported pEC50 Strain C for this entry: CC(C)CN(C[C@@H](O)[C@H](Cc1ccccc1)NC(=O)O[C@H]1CCOC1)S(=O)(=O)c1ccc2nc(N)sc2c1
**Result** 8.42

**Query** Please indicate pEC50 Strain C recorded for CNc1nc2ccc(S(=O)(=O)N(CC(C)C)C[C@@H](O)[C@H](Cc3ccccc3)NC(=O)O[C@H]3CCOC3)cc2s1.O=C(O)C(F)(F)F
**Result** 8.19

* * *

- Tested on: HIV-1 strain LAI
- test summary: Cellular anti-HIV assay (MT4/MTT), wild type
- Assay type: cell-based
- measurement setup: Human immunodeficiency virus 1; wild type HIV-1 strain LAI, MT4 cells; read-out: WT (pEC50) (converted)
Provide the reported log10(EC50) of each item.
Annotation: log10 of EC50, nM basis.

**Query** Specify log10(EC50) for Cc1cccc(C)c1OCC(=O)N[C@@H](Cc1ccccc1)[C@H](O)CN(CC(C)C)S(=O)(=O)c1ccc2nc(N)sc2c1 , system HIV-1 strain LAI.
**Result** 0.82

**Query** Determine reported log10(EC50) for Cc1cc(CN)cc(C)c1OCC(=O)N[C@@H](Cc1ccccc1)[C@H](O)CN(CC(C)C)S(=O)(=O)c1ccc2nc(N)sc2c1 ; test system: HIV-1 strain LAI.
**Result** 0.85

**Query** Fill in: log10(EC50) on HIV-1 strain LAI, entry CNc1nc2ccc(S(=O)(=O)N(CC(C)C)C[C@@H](O)[C@H](Cc3ccccc3)NC(=O)c3ccc(Br)cc3C)cc2s1
**Result** 1.28

**Query** Fill in: log10(EC50) on HIV-1 strain LAI, entry CNc1nc2ccc(S(=O)(=O)N(CC(C)C)C[C@@H](O)[C@H](Cc3ccccc3)NC(=O)OCc3cncs3)cc2s1
**Result** 0.28

**Query** Enter measured log10(EC50), system HIV-1 strain LAI, for the compound shown: CC(C)CN(C[C@@H](O)[C@H](Cc1ccccc1)NC(=O)OCc1cncs1)S(=O)(=O)c1ccc2nc(N)sc2c1
**Result** 0.66

**Query** Recall the reported log10(EC50) of CC(C)CN(C[C@@H](O)[C@H](Cc1ccccc1)NC(=O)OC1COC2OCCC12)S(=O)(=O)c1ccc2nc(N)sc2c1 (stereo partly shown) on HIV-1 strain LAI and write it down.
**Result** 0.74

**Query** State the measured log10(EC50) (HIV-1 strain LAI) of Cc1c(F)cccc1C(=O)N[C@@H](Cc1ccccc1)[C@H](O)CN(CC(C)C)S(=O)(=O)c1ccc2nc(N)sc2c1
**Result** 3.15

* * *

- test summary: Toxicity on mock-infected cells (MTT)
- Assay type: cell-based
- measurement setup: human
Give measured CC50 at 5 days for each item. Keep answers brief.
Numeric answer only, unit µM assumed.

**Query** Look up CC50 at 5 days of Cc1cc(CN)cc(C)c1OCC(=O)N[C@@H](Cc1ccccc1)[C@H](O)CN(CC(C)C)S(=O)(=O)c1ccc2nc(N)sc2c1 and report it.
**Result** 63.1

**Query** Name the recorded CC50 at 5 days of the compound listed here: CNc1nc2ccc(S(=O)(=O)N(CC(C)C)C[C@@H](O)[C@H](Cc3ccccc3)NC(=O)COc3c(C)cc(CN)cc3C)cc2s1
**Result** 14.1

**Query** For the compound CC(C)CN(C[C@@H](O)[C@H](Cc1ccccc1)NC(=O)OCc1ccccc1)S(=O)(=O)c1ccc2nc(N)sc2c1 , give its reported CC50 at 5 days.
**Result** 46.8

* * *

- Test system: mutant HIV strain C
- test summary: microbe, parasite or virus in culture
- Assay type: cell-based
- measurement setup: FR=EC50 (mutant strain)/EC50 (HIV-1 strain LAI)
endpoint name: fold resistance Strain C

**Query** Tell me fold resistance Strain C reported for CC(C)CN(C[C@@H](O)[C@H](Cc1ccccc1)NC(=O)O[C@H]1CCOC1)S(=O)(=O)c1ccc2nc(N)sc2c1
**Result** 1.3

**Query** Read off the recorded fold resistance Strain C for CNc1nc2ccc(S(=O)(=O)N(CC(C)C)C[C@@H](O)[C@H](Cc3ccccc3)NC(=O)O[C@H]3CCOC3)cc2s1.O=C(O)C(F)(F)F
**Result** 4.5

**Query** State its fold resistance Strain C for this molecule: CNc1nc2ccc(S(=O)(=O)N(CC(C)C)C[C@@H](O)[C@H](Cc3ccccc3)NC(=O)O[C@H]3CO[C@H]4OCC[C@H]43)cc2s1
**Result** 0.4

**Query** For the molecule Cc1c(O)cccc1C(=O)N[C@@H](Cc1ccccc1)[C@H](O)CN(CC(C)C)S(=O)(=O)c1ccc2nc(N)sc2c1 , give its measured fold resistance Strain C value.
**Result** 0.5

**Query** Please report the measured fold resistance Strain C for Cc1cccc(C)c1OCC(=O)N[C@@H](Cc1ccccc1)[C@H](O)CN(CC(C)C)S(=O)(=O)c1ccc2nc(N)sc2c1
**Result** 3.9

**Query** Provide one value: measured fold resistance Strain C of CC(C)CN(C[C@@H](O)[C@H](Cc1ccccc1)NC(=O)OCc1cncs1)S(=O)(=O)c1ccc2nc(N)sc2c1
**Result** 3.4

**Query** Note fold resistance Strain C for the molecule shown: CC(C)CN(C[C@@H](O)[C@H](Cc1ccccc1)NC(=O)OCc1ccccc1)S(=O)(=O)c1ccc2nc(N)sc2c1
**Result** 5.5

**Query** Note fold resistance Strain C for the molecule shown: CNc1nc2ccc(S(=O)(=O)N(CC(C)C)C[C@@H](O)[C@H](Cc3ccccc3)NC(=O)c3ccc(Br)cc3C)cc2s1
**Result** 263.0

**Query** Answer with the recorded fold resistance Strain C for the molecule listed here: CNc1nc2ccc(S(=O)(=O)N(CC(C)C)C[C@@H](O)[C@H](Cc3ccccc3)NC(=O)COc3c(C)cccc3C)cc2s1
**Result** 3.5

**Query** Could you please provide reported fold resistance Strain C for CC(C)CN(C[C@@H](O)[C@H](Cc1ccccc1)NC(=O)OC1COC2OCCC12)S(=O)(=O)c1ccc2nc(N(C)C)sc2c1 (stereo partly shown) ? Thanks!
**Result** 8.5

**Query** Answer with the recorded fold resistance Strain C of CC(C)CN(C[C@@H](O)[C@H](Cc1ccccc1)NC(=O)OC1CCOC1)S(=O)(=O)c1ccc2nc(N)sc2c1 (stereo partly shown) only.
**Result** 44.7

**Query** Please give the documented fold resistance Strain C of Cc1ccccc1C(=O)N[C@@H](Cc1ccccc1)[C@H](O)CN(CC(C)C)S(=O)(=O)c1ccc2nc(N)sc2c1
**Result** 46.8

**Query** Please report fold resistance Strain C for the following molecule: CNc1nc2ccc(S(=O)(=O)N(CC(C)C)C[C@@H](O)[C@H](Cc3ccccc3)NC(=O)COc3c(C)cc(N)cc3C)cc2s1
**Result** 2.7

* * *

- Tested on: mutant HIV strain C
- test summary: microbe, parasite or virus in culture
- Format: cell-based
- measurement setup: FR=EC50 (mutant strain)/EC50 (HIV-1 strain LAI)
Can you tell me fold resistance Strain C for the items I'm about to list?

**Query** Tell us which fold resistance Strain C value is on record for CNc1nc2ccc(S(=O)(=O)N(CC(C)C)C[C@@H](O)[C@H](Cc3ccccc3)NC(=O)OC3COC4OCCC34)cc2s1 (stereo partly shown) [Compound 4]
**Result** 2.6

**Query** Specify measured fold resistance Strain C for CC(C)CN(C[C@@H](O)[C@H](Cc1ccccc1)NC(=O)OCc1cccnc1)S(=O)(=O)c1ccc2nc(N)sc2c1 [Compound 9] .
**Result** 1000.0

**Query** Specify measured fold resistance Strain C for CNc1nc2ccc(S(=O)(=O)N(CC(C)C)C[C@@H](O)[C@H](Cc3ccccc3)NC(=O)COc3c(C)cc(CN)cc3C)cc2s1 [Compound 25] .
**Result** 4.4

**Query** Supply reported fold resistance Strain C belonging to this compound: CC(C)CN(C[C@@H](O)[C@H](Cc1ccccc1)NC(=O)OC1COC2OCCC12)S(=O)(=O)c1ccc2nc(N)sc2c1 (stereo partly shown) [Compound 1]
**Result** 0.8
